test: 1D 1H NMR aqueous solubility in phosphate buffer; format: physicochemical; conditions: kinetic from dmso stock, phosphate buffer pH 7.4 in D2O, 0.1% d6-DMSO, 25 °C, range 3.125–100 µM, read-out: Soluble in phosphate buffer up to (concentration)
endpoint: solubility

| smiles representation | value measured |
| --- | --- |
| O=C(O)c1cccc(NS(=O)(=O)c2ccc(Cl)c(Cl)c2)c1 | ≥ 100 µM |

Now for the compound whose solubility we want.
Request: Return reported solubility; argument: CCc1c(-c2ccccc2)c(-c2ccccc2)nn1-c1ccccc1-c1cccc(OCC(=O)O)c1
Response: ≥ 100 µM

###

molecular target: Recombinantly-expressed human FABP4 (Homo sapiens, UniProt P15090); construct: made in house; assay: Isothermal titration calorimetry (ITC) binding affinity to FABP4; settings: 25°C, pH 7.4, 2% DMSO, one-site binding model, read-out: KD against FABP4
Sequence (P15090 whole entry): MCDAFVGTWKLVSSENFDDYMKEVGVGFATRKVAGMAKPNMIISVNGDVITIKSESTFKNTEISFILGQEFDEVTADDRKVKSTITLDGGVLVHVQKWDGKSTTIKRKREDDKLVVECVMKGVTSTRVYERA
endpoint: Kd

Request: Return reported Kd; argument: CNC(=O)c1ccc(S(=O)(=O)Nc2cccc(C(=O)O)c2)cc1 [MFP-0012318]
Response: > 100 µM

###

Catalogue of molecules with associated pKd
molecular target: Recombinantly-expressed human FABP4 (Homo sapiens); construct: made in house; assay: Isothermal titration calorimetry (ITC) binding affinity to FABP4; details: one-site binding model, read-out: KD (ITC titration of FABP4, Figure S1)
# pKd = -log10(concentration in molar units)

| smiles representation | pKd |
| --- | --- |
| COc1cc(S(=O)(=O)Nc2cccc(C(=O)O)c2)ccc1Cl | 6.16 |
| O=C(O)c1cccc(NS(=O)(=O)c2ccc(Cl)c(Cl)c2)c1 | 6.50 |

Now for the molecule whose pKd we want.
Request: Return reported pKd; argument: COc1ccc(S(=O)(=O)Nc2cccc(C(=O)O)c2)cc1Cl
Response: 6.05

This collection of values is drawn from paper PMC12000251.
